# experimentalSystem: SpBzz1-D2
# assayText: SPOT peptide array binding signal intensity (averaged, normalized) (arbitrary units (background-subtracted, floor 0; scale differs between SH3 domains)); higher = stronger binding of the SH3 domain to the peptide
measuredParameter: SPOT peptide array binding signal intensity

Use the examples below as a reference point.
{"columns": ["binder", "experimentalResult"],
 "data": [
  ["QTREPNEPPPPSPAM", 0.5],
  ["RKNRAPPQRPRFNRD", 9.75],
  ["SRSKPLPLTPNSKYN", 1.25]
]}

Attention now shifts to the item below.
## Task I would be grateful if you could share the reported SPOT peptide array binding signal intensity for `TTAPALPSLPPPPLL` .
## Result ≤ 0

Measured values drawn from the supplement of paper PMC4466140 for this set.
